Values compiled from ChEMBL document CHEMBL6182903.

# Test System: GTPase KRas (Homo sapiens, UniProt P01116, G12S)
# Experiment Notes: Binding affinity to human recombinant GDP-bound KRAS G12S mutant (1 to 169 residues) assessed as inhibition constant
Quantity Measured: pKi
Numbers only, as −log10 of the molar value.

Form: item `O=C1O[C@H]2CN(c3nc(OCC45CCCN4CCC5)nc4c3CCN(c3cccc5cccc(Cl)c35)C4)CC[C@@H]12` ; test system GTPase KRas (Homo sapiens, UniProt P01116, G12S); pKi: 4.59

----------
# Test System: GTPase KRas (Homo sapiens, UniProt P01116, G12S)
# Experiment Notes: Inhibition of KRAS G12S mutant in human A549 cells assessed as reduction in ERK phosphorylation
Quantity Measured: pIC50
Answers are plain numbers, as −log10 of the molar value.

Consider `O=C1O[C@H]2CN(c3nc(OCC45CCCN4CCC5)nc4c3CCN(c3cccc5cccc(Cl)c35)C4)CC[C@@H]12` . Its measured pIC50 is 5.62
